Assay: chemical genetic growth profiling, strain panel (AID 1159580);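 also: tested at 20 µM; growth read once vehicle control cultures reached saturation at 30 °C; 1 = growth at the plate median or of vehicle wells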
Conditions: S. cerevisiae deletion strains, growth OD, locus YJL092W, strain hpr5
Out of some 5,500 compounds screened, about 2,000 (36%) were called active. Not shown: some 18% with an inconclusive outcome. Rule as the data show it: active = normalized growth mostly below about 0.91 (no sharp cut-off); inconclusive = no clear call, values can overlap the other calls; inactive = mostly above about 0.92. The list shows a part of the results.
Outcome field: choose from active, inactive

Example results:
C=CCCCCCCCCCCCC(O)CC(O)COC(C)=O (stereo not drawn) (tested in a mixture with another compound) :: inactive
O=C1[C@H](CCC(O)c2ccc(F)cc2)[C@@H](c2ccc(O)cc2)N1c1ccc(F)cc1 (stereo partly drawn) :: inactive
O=S1OCC2C(CO1)C1(Cl)C(Cl)=C(Cl)C2(Cl)C1(Cl)Cl (stereo not drawn) :: inactive
C#CCCCCCCCCCCCC(O)CC(O)CO (stereo not drawn) :: inactive

[in] Test call for this molecule, please: C#CCCCCCCCCCCCC(=O)CC(O)COC(C)=O (stereo not drawn)
[out] inactive

[in] Test call for this molecule, please: C#CCCCCCCCCCCCC(O)CC(O)COC(C)=O (stereo not drawn)
[out] inactive

[in] Test call for this molecule, please: `CC(=O)OCC[C@H](C)CCC=C(C)C`
[out] inactive

[in] Test call for this molecule, please: `COC(=O)C1=CCCN(C)C1`
[out] inactive

[in] Test call for this molecule, please: `COc1cc2occ(-c3ccccc3)c(=O)c2c(OC)c1C`
[out] inactive

[in] Test call for this molecule, please: `Cc1ccc(Cl)c(Nc2ccccc2C(=O)O)c1Cl`
[out] active

[in] Test call for this molecule, please: CC(=O)OC1CCC2(C)C(=CC=C3C2CCC2(C)C3CCC2C(C)/C=C/C(C)C(C)C)C1(C)C (stereo not drawn)
[out] inactive

[in] Test call for this molecule, please: `COc1cc(OC)c2c(=O)c(-c3ccccc3)coc2c1`
[out] inactive

[in] Test call for this molecule, please: `Cc1c(Cl)cccc1Nc1ccccc1C(=O)O`
[out] active

[in] Test call for this molecule, please: CC1OC1P(=O)(O)O (stereo not drawn)
[out] inactive

---

Test: chemical genetic growth profiling, strain panel (AID 1159580)
Settings: S. cerevisiae deletion strains, growth OD, locus YBR160W, strain CDC28
Screen size: about 5,500 compounds; about 2,000 (36%) were called active. About 18% were inconclusive and are not listed. No stated cut-off is given here; in the data, active means normalized growth mostly below about 0.91 (no sharp cut-off); inconclusive means no clear call, values can overlap the other calls; inactive means mostly above about 0.92. The list shows a part of the results.
Outcome field: choose from active, inactive

Example results:
O=[N+]([O-])c1ccc(Sc2ssc(=S)c2-c2ccccc2)nc1 :: inactive
Cc1onc(-c2c(F)cccc2Cl)c1C(=O)ON=C1C2CC3CC(C2)CC1C3 :: active
CC(C)(C)c1ccc(C(=O)NNc2c(Cl)cccc2Cl)cc1 :: inactive
CC1(C)OC(=O)C(=Cc2cccn2-c2ccc(OC(F)(F)F)cc2)C(=O)O1 :: inactive
CC1(C)OC(=O)C(=Cc2cccn2-c2ccc(C(F)(F)F)cc2)C(=O)O1 :: inactive

Please find the next compound below.
[in] Test call for this compound, please: `Cc1ccc(NS(=O)(=O)c2ccc(Cl)cc2)c(N=Cc2cc(Cl)cc(Cl)c2O)c1`
[out] inactive

---

Experiment: chemical genetic growth profiling, strain panel (AID 1159580)
Conditions: S. cerevisiae deletion strains, growth OD, locus YJL095W, strain BCK1 (second series), stronger effect = lower value
Among all 5,500 compounds or so, about 2,000 (36%) were called active. Inconclusive results (about 18%) are left out. Some of the results follow.
measurement-kind: normalized growth
The answer should be written as a number, with no unit following it.

Sample answers from the record:
C[C@@H]1C(=O)OC2[C@H](O)C34[C@@H]5OC(=O)[C@@]3(O[C@@H]3OC(=O)[C@H](O)[C@@]34[C@H](C(C)(C)C)[C@H]5O)[C@]21O (stereo not given in full) :: 0.955
COC(=O)C(C)c1ccc(C(=O)c2cccs2)cc1 (stereo not given) :: 1.01
CC[N+](CC)(CC)CCOc1cccc(OCC[N+](CC)(CC)CC)c1OCC[N+](CC)(CC)CC :: 1.02
O=c1cc[nH]c(=S)[nH]1 :: 1.01
COc1ccc2c(c1)O[C@H]1c3ccc(OC)cc3OC[C@@H]21 :: 1.01

Here is the next item to consider.
[in] What does the data say about its normalized growth? Entry: `CC(C)NNC(=O)c1ccncc1`
[out] 1.02

---

Assay: chemical genetic growth profiling, strain panel (AID 1159580)
Settings: S. cerevisiae deletion strains, growth OD, locus YOR316C, strain cot1
In all, about 5,500 compounds went through this assay and about 2,000 (36%) were called active. Inconclusive results (about 18%) are left out. No stated cut-off is given here; in the data, active means normalized growth mostly below about 0.91 (no sharp cut-off); inconclusive means no clear call, values can overlap the other calls; inactive means mostly above about 0.92. Some of the results follow.
Outcome field: choose from 1 = active, -1 = inactive

Example results:
CC(C)NCC(O)c1cc(O)cc(O)c1 (stereo not drawn) :: -1
C=C1C(=O)O[C@@H]2C3O[C@]3(C)CC/C=C(\C)CC[C@@H]12 (stereo partly drawn) :: -1
C=C1C(C)C2C(Cc3ccccc3)NC(=O)C23OC(=O)/C=C/C(=O)CCCC(C)C/C=C/C3C1O (stereo not drawn) :: -1
CC(=O)OCC(OC(C)=O)C(OC(C)=O)C(OC(C)=O)C(OC(C)=O)C(COC(C)=O)OC(C)=O (stereo not drawn) :: -1
C=C1C(=O)OC2CC1C(OC(C)=O)C/C(C)=C/CC/C(C)=C/CC[C@]2(C)O (stereo partly drawn) :: -1

Please find the next molecule below.
[in] Test call for this molecule, please: C#CCCCCCCCCCCCC(O)CC(O)CO (stereo not drawn)
[out] -1

---

Assay: chemical genetic growth profiling, strain panel (AID 1159580);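 also: tested at 20 µM; growth read once vehicle control cultures reached saturation at 30 °C; 1 = growth at the plate median or of vehicle wells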
Settings: S. cerevisiae deletion strains, growth OD, locus YHR082C, strain KSP1
Screen size: about 5,500 compounds; about 2,000 (36%) were called active. Inconclusive results (about 18%) are left out. No stated cut-off is given here; in the data, active means normalized growth mostly below about 0.91 (no sharp cut-off); inconclusive means no clear call, values can overlap the other calls; inactive means mostly above about 0.92. Some of the results follow.
Outcome field: choose from active, inactive

Example results:
ClC1=C(C=Nc2ccc(Cl)cc2)CSc2ccc(Cl)cc21 :: inactive
Cc1ccc(NNC(=O)c2c(C)noc2C)cc1Cl :: inactive
CCCCCCCCCCCC(=O)NOC(=O)c1c(-c2c(Cl)cccc2Cl)noc1C :: inactive
Cc1ccc(NC(=O)c2ccccc2N=Cc2cc(Cl)cc(Cl)c2O)c(N=Cc2cc(Cl)cc(Cl)c2O)c1 :: active
O=C(/C=C/Sc1nc2ccccc2s1)c1ccc(Cl)cc1 :: inactive
O=[N+]([O-])c1ccc2oc(C(O)c3cccc(Cl)c3)cc2c1 (stereo unspecified) :: inactive

[in] Test call for this molecule, please: `O=[N+]([O-])c1ccc(Sc2ssc(=S)c2-c2ccccc2)nc1`
[out] active

[in] Test call for this molecule, please: `COC(=O)c1sccc1-c1ccc(/C=C/[N+](=O)[O-])o1`
[out] active

[in] Test call for this molecule, please: `CCc1ccn2cc(Nc3ccccc3Cl)nc2c1`
[out] inactive

[in] Test call for this molecule, please: `Cc1onc(-c2c(Cl)cccc2Cl)c1C(=O)NC(C)(C)CC(C)(C)C`
[out] inactive

[in] Test call for this molecule, please: `Cc1c(C(=S)Nc2ccccc2)sc2ccccc12`
[out] inactive

---

Assay: chemical genetic growth profiling, strain panel (AID 1159580);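 also: tested at 20 µM; growth read once vehicle control cultures reached saturation at 30 °C; 1 = growth at the plate median or of vehicle wells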
Conditions: S. cerevisiae deletion strains, growth OD, locus YBL105C, strain PKC1, stronger effect = lower value
Out of some 5,500 compounds screened, about 2,000 (36%) were called active. Another 18% or so got no clear call; they are omitted. The list shows a part of the results.
measurement-kind: normalized growth
The answer should be written as a number, with no unit following it.

Sample answers from the record:
Cc1ccc(NS(=O)(=O)c2ccc(-c3csc(C)n3)s2)c(C)c1 :: 0.984
Cc1c(-c2ccnn2C(=O)c2ccco2)cnn1-c1ccccc1 :: 0.957
Cc1nc(-c2ccc(S(=O)(=O)Nc3ccc(Br)cc3Cl)s2)cs1 :: 0.946
O=C(Nc1ccc(OC(F)(F)F)cc1)OC1CN(C(c2ccccc2)c2ccccc2)C1 :: 0.995

[in] What does the data say about its normalized growth? Entry: `O=C(Nc1ccc(OC(F)(F)F)cc1)N1CCN(c2nc(-c3ccccc3)ns2)CC1`
[out] 1

---

Test: chemical genetic growth profiling, strain panel (AID 1159580);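 also: tested at 20 µM; growth read once vehicle control cultures reached saturation at 30 °C; 1 = growth at the plate median or of vehicle wells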
Details: S. cerevisiae deletion strains, growth OD, locus YOR070C, strain gyp1, stronger effect = lower value
Among all 5,500 compounds or so, about 2,000 (36%) were called active. Another 18% or so got no clear call; they are omitted. Some of the results follow.
Overview of recorded normalized growth for various compounds
The answer should be written as a number, with no unit following it.

COc1cc2c(cc1OC)C1Cc3ccc(OC)c(OC)c3CN1CC2 (stereo not given) :: 0.984
CO/N=C(\C(=O)NC1C(=O)N2C(C(=O)OC(C)OC(C)=O)=C(COC(N)=O)CSC12)c1ccco1 (stereo not given) :: 0.929

[in] What does the data say about its normalized growth? Entry: CO/N=C(\C(=O)NC1C(=O)N2C(C(=O)O)=C(COC(N)=O)CSC12)c1ccco1 (stereo not given)
[out] 0.988

[in] What does the data say about its normalized growth? Entry: CC(C)NCC(O)c1cc(O)cc(O)c1 (stereo not given)
[out] 0.993

[in] What does the data say about its normalized growth? Entry: CCCC(=O)O[C@]1(C(=O)CO)CCC2[C@@H]3CCC4=CC(=O)CC[C@]4(C)C3[C@@H](O)C[C@@]21C (stereo not given in full)
[out] 1

[in] What does the data say about its normalized growth? Entry: CC1=CC2C(CC1=O)C(C)=CCC2C(C)C (stereo not given)
[out] 0.992

[in] What does the data say about its normalized growth? Entry: `CO/N=C(\C(=O)N[C@@H]1C(=O)N2C(C(=O)O)=C(COC(C)=O)CS[C@H]12)c1csc(N)n1`
[out] 0.995

Origin of measurements: PubChem BioAssay AID1159580
